Test system: U87 human glioma cells
Assay: MTT cytotoxicity assay, U87 cells
Type: cell-based
Details: U-87 cells, 48 hours
EXPERIMENTAL READOUT: pIC50
// pIC50: -log10(molar conc.)

Asked: Tell me reported pIC50 for C=C(C)C1CC=C(COC(=O)N2CC(c3ccc(OC)c(OC4CCCC4)c3)CC2=O)CC1 (stereo not shown) , tested with U87 human glioma cells.
Given back: 3.74

* * *

System: A172 human glioma cells
Assay: MTT cytotoxicity assay, A172 cells
Format: cell-based
Settings: A-172 cells, 48 hours
EXPERIMENTAL READOUT: IC50 (µM)
Response body: numeric value in µM, unit text excluded.

Asked: Tell me reported IC50 for C=C(C)C1CC=C(COC(=O)N2CC(c3ccc(OC)c(OC4CCCC4)c3)CC2=O)CC1 (stereo not shown) , tested with A172 human glioma cells.
Given back: 50

* * *

Tested on: U251 human glioma cells
Experiment: MTT cytotoxicity assay, U251 cells
Conditions: U251 cells, MTT, 48 hours
EXPERIMENTAL READOUT: pIC50
// pIC50: -log10(molar conc.)

Asked: Could you tell me which pIC50 is on file for C=C(C)C1CC=C(COC(=O)N2CC(c3ccc(OC)c(OC4CCCC4)c3)CC2=O)CC1 (stereo not shown) ?
Given back: 4.30

* * *

Tested on: LN229 human glioma cells
Experiment: cells
Settings: LN229 cells, MTT, 48 hours
EXPERIMENTAL READOUT: pIC50
// pIC50: -log10(molar conc.)

Asked: Could you tell me which pIC50 is on file for C=C(C)C1CC=C(COC(=O)N2CC(c3ccc(OC)c(OC4CCCC4)c3)CC2=O)CC1 (stereo not shown) ?
Given back: 4.00

* * *

Test system: U87 human glioma cells
Assay: MTT cytotoxicity assay, U87 cells
Type: cell-based
Details: Homo sapiens, U-87 MG, U-87 cells, 48 hours
pIC50: −log10 of the molar value.
EXPERIMENTAL READOUT: pIC50

Asked: Tell me reported pIC50 for COc1ccc(C2CNC(=O)C2)cc1OC1CCCC1 (stereo not shown) [rolipram, reference compound] , tested with U87 human glioma cells.
Given back: < 3.00
